# tested-target: C. difficile toxin B from strain VPI10463 (ATCC 43255), toxinotype 0 (Clostridium difficile, UniProt P18177 2-2366)
# Sequence (P18177 2-2366 limits assumed): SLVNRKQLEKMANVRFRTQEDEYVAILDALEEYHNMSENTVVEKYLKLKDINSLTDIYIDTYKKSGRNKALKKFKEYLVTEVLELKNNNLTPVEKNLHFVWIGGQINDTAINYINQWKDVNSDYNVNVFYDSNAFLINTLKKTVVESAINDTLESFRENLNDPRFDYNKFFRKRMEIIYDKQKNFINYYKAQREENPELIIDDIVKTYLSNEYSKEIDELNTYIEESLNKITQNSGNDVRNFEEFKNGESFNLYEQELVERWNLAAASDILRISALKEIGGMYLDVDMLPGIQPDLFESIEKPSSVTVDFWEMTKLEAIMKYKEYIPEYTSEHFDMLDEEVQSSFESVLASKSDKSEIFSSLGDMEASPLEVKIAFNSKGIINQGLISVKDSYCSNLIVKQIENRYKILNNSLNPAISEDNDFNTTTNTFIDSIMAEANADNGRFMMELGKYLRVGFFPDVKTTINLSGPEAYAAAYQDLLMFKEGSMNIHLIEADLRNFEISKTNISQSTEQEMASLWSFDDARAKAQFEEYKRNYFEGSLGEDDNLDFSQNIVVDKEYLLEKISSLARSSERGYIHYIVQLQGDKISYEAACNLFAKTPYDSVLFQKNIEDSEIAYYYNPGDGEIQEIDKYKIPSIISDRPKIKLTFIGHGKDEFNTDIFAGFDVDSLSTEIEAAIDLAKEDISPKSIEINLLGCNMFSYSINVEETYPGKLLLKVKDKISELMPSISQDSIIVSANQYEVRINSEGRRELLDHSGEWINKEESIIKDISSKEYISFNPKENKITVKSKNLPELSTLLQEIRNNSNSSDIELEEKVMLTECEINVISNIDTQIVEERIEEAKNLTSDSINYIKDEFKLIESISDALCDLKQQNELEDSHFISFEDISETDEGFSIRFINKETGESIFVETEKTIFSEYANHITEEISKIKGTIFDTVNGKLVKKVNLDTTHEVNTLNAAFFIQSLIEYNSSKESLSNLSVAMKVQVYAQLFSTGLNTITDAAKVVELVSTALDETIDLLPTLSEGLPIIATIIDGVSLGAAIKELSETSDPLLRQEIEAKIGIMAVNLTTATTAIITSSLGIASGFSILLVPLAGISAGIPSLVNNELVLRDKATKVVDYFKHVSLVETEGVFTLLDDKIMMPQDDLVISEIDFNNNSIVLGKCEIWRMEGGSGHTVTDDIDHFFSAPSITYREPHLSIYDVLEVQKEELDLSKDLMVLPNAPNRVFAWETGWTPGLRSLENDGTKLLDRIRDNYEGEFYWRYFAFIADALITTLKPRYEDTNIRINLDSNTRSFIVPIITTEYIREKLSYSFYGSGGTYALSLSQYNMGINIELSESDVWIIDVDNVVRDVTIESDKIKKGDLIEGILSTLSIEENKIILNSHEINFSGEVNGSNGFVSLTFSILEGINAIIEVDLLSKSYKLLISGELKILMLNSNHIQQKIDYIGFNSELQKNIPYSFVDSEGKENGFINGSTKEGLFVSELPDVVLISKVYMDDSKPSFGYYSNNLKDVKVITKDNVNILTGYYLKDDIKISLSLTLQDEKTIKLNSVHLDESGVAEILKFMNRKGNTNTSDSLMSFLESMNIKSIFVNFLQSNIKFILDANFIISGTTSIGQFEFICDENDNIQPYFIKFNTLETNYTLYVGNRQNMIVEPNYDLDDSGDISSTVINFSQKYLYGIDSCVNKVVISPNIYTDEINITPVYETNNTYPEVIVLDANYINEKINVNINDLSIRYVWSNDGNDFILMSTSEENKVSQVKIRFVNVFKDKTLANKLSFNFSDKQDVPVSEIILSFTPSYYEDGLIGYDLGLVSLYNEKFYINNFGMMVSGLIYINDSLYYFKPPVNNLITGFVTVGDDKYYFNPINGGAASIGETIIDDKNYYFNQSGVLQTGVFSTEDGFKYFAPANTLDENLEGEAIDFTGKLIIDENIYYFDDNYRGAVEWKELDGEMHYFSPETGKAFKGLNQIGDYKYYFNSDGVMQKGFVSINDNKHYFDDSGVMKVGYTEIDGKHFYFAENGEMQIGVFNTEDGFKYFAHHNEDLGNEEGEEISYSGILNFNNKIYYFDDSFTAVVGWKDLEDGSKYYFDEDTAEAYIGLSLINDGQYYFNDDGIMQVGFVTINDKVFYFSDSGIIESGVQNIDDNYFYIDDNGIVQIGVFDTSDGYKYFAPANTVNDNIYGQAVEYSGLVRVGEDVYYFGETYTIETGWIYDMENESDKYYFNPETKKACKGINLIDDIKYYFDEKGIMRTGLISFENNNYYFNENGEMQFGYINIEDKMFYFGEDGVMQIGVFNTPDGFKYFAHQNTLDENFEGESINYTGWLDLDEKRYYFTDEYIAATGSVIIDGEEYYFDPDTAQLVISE
# run-description: BLI (Octet Red96), antibody on Protein A sensor, toxin in solution
Each record here notes measured kon.
observable: kon (M⁻¹ s⁻¹)

[[record]]
binder = "B4 antibody (antibody, V domains shown) VH: EVQLVESGGGLVKPGGSLRVSCAASGFTFSSYSMNWIRQAPGKGLEWVSSISSNSSYIYYADSVKGRFTISRDNAKNSLYLQMNSLRAEDTAVYYCARDRDYSNYLTAWGQGTLVTVSS VL: QSVLTQPPSVSGAPGQRVTISCTGSSSNIGAGYDVHWYRQLPGTAPKLLIYGKNNRPSGVPNRFSGSKSGTSASLAITGLQAEDEADYYCQSYDSSLSGSVFGGGTKLTVLG"
result_units = "M⁻¹ s⁻¹"
observed_result = 531000

[[record]]
binder = "B1 antibody (antibody, V domains shown) VH: EVQLVESGGGLVQPGGSLRLSCAASGFTFRSYWMHWVRQVPGKGLVWVSCINKEGSSTTYADSVKGRFTISRDNAKNTLYLEMNSLRADDTAVYYCLRGYDVDYWGQGTLVTVSS VL: QAVLTQPSSLSASPGASVSLTCTLRSGINVGTYRIYWYQQKPGSPPRYLLRYKSGLDKHQGSGVPSRFSGSKDDSANAGILFISGLQSEDEADYYCLIWHSSAVVFGGGTKLTVLG"
result_units = "M⁻¹ s⁻¹"
observed_result = 585000

[[record]]
binder = "B6 antibody (antibody, V domains shown) VH: EVQLVESGGGLVQPGGSLRLSCAASGFTFTTSTMNWVRQAPGKGLEWVSYITRTSTVIYYADSVKGRFTISRDNAKNSLYLQMSSLRAEDTAVYYCARGVRDIGGNGFDYWGQGTLVTVSS VL: EIVLTQSPGTLSLSPGERATLSCRASQSVTSSYLAWYQQKTGQAPRLLIYGASSRATGIPDRFSGSGSGTDFTLTIARLEPEDFAVYYCQQYGSSPPYTFGQGTKLEIKR"
result_units = "M⁻¹ s⁻¹"
observed_result = 730000

[[record]]
binder = "B3 antibody (antibody, V domains shown) VH: EVQLVESGGGLVQPGGSLRLSCSASGFTFRSYWMHWVRQVPGKGLVWVSCINKEGSSTTYADSVKGRFTISRDNAKNTLYLQMNSLRADDTAVYYCLRGYDVDYWGQGTLVTVSS VL: QAVLTQPSSLSASPGASVSLTCTLRSGVNVGSYRIYWYQQKPGSPPRYLLRYKSGLDKHQGSGVPSRFSGSKDDSANAGILFISGLQSENDADYYCLIWHNSAVVFGGGTKLTVLG"
result_units = "M⁻¹ s⁻¹"
observed_result = 193000

